System: RXF 393 renal
Protocol text: NCI-60 one-dose screen, 48 h
Experimental parameters: 10 µM unless noted
The panel holds about 83,000 compounds, 20% with a hit somewhere; the sample as a whole holds those more often. Calls of active or inactive are those of the source. The calls were made as follows: active = growth percent below 10; inactive = the rest.
Respond using exactly one of the listed classes: active, inactive

Past entries and their recorded results:
{"Compound": "CC(C)=NNc1ccccn1", "Study system": "RXF 393 renal", "Label class": "inactive"}
{"Compound": "Cn1cc(-c2nc(-c3c[nH]c4ccncc34)cs2)c2ccccc21", "Study system": "RXF 393 renal", "Label class": "inactive"}
{"Compound": "COc1ccc(-c2cc(-c3ccc(Cl)cc3)c(C#N)c(=O)n2CCCCC(=O)Nc2ccccc2N)cc1", "Study system": "RXF 393 renal", "Label class": "inactive"}
{"Compound": "O=C1Nc2ccccc2/C1=C\\c1nc(-c2ccccc2F)n2ccccc12", "Study system": "RXF 393 renal", "Label class": "active"}
{"Compound": "COC(=O)c1c2c(c(C)[n+]([O-])c1C)C(=O)C=C(NCc1ccc(OC)cc1)C2=O", "Study system": "RXF 393 renal", "Label class": "active"}

Request: Record request — test call for OB(O)c1cccc(-c2nc3ccc4[nH]ncc4c3c3c2CCCC3)c1
Response: inactive

Request: Could you kindly confirm the outcome this assay logged for COC(C(=O)[C@@H](O)[C@@H](C)O)[C@@H]1Cc2cc3cc(O[C@H]4C[C@@H](O[C@H]5C[C@@H](O)[C@H](O)C(C)O5)[C@H](O)C(C)O4)c(C)c(O)c3c(O)c2C(=O)[C@H]1O[C@H]1C[C@@H](O[C@H]2C[C@@H](O[C@H]3C[C@@H](O)[C@H](OC)C(C)O3)[C@@H](O)C(C)O2)[C@H](O)C(C)O1 (stereo partly drawn) ?
Response: active

Request: Test call, this compound: O=C(Cn1c(-c2ccc([N+](=O)[O-])cc2)nc2ccccc21)NNC(=O)c1cccnc1
Response: inactive

Request: For COc1ccc(C(=O)C2C(c3ccc(OC)cc3)CN(C)C23C(=O)Nc2ccccc23)cc1 (stereo not drawn) , which call appears in the assay record?
Response: inactive

Request: Give the logged outcome of this assay for the following compound: CC(O)c1cnc(/C=C2\SC(=S)N(Cc3ccccc3)C2=O)s1 (stereo not drawn)
Response: inactive

Request: What outcome does the record of this test show for Cc1cc(Cl)ccc1Nc1nc(C(F)(F)F)ccc1C(=O)N/N=C/c1ccc([N+](=O)[O-])cc1 ?
Response: active

Request: Recorded test outcome, item CCCCCCCCCCCCCCCCCCOc1ccccc1CC(=O)NCC[N+]1(C)CCCC1
Response: active

Request: I would be grateful if you could indicate the recorded call for CCN1C(=O)N(CC)C2C1NN=c1s/c(=C\c3ccc(Cl)cc3Cl)c(=O)n12 (stereo not drawn) .
Response: inactive

====

System: ACHN renal
Protocol text: NCI-60 one-dose screen, 48 h (100 = growth as untreated, 0 = no growth, -100 = all killed)
Experimental parameters: 10 µM unless noted
Experimental: Growth inhibition of the ACHN human tumor cell line is measured as a screen for anti-cancer activity. Cells are grown in 96 well plates and exposed to the test compound for 48 hours. Compounds are tested at a single concentration, which is 10^-5 M for most compounds. The reported endpoint is percent growth (GI% or GIPRCNT), where numbers from 0 - 100% represent growth inhibition, and numbers from -100% - 0 represent cell death. For example, a value of 40 represents 60% growth inhibition. […]
About 83,000 compounds went through this panel and 20% of them were active in at least one assay; those are over-represented in the sample as a whole.
Assay endpoint: growth (%)
Your answer should be a plain number; it is taken to be in %.

Guide cases for growth, answers given:
{"Molecule": "COc1ccc(NC(=O)c2sc3nc(C)c(C(=O)/C=C/c4cccc(OC)c4)cc3c2N)cc1", "Uom": "%", "Reported": 52.3}
{"Molecule": "COc1cc(CNS(=O)(=O)c2ccc(C)cc2)ccc1OCc1cn(-c2ccc(Br)cc2)nn1", "Uom": "%", "Reported": 98.4}
{"Molecule": "CCCCN1C(=O)/C(=c2\\sc3n(c2=O)C2C(NN=3)N(CC)C(=O)N2CC)c2ccccc21 (stereo unspecified)", "Uom": "%", "Reported": 23.9}

Request: Given O=C1/C(=C\c2cn(-c3ccccc3)nc2-c2ccc(-c3cccs3)cc2)CCc2ccccc21 , state its recorded growth.
Response: 79.5

Request: Give its growth value. Item: O=C1/C(=C/c2cccs2)SC(=S)N1CCCN1CCOCC1
Response: 95.3

Request: What growth value was documented for this molecule, N#Cc1c(-c2ccc(Cl)cc2)nc(SCC(=O)NC2=NN=C(c3ccccc3)CS2)[nH]c1=O ?
Response: 88.9

====

Test system: CAKI-1 renal
Protocol text: NCI-60 one-dose screen, 48 h
Experimental parameters: 10 µM unless noted
Compounds without any hit were thinned out: in the full panel of roughly 83,000, 20% have a hit. Active and inactive are the calls of the source. Rule for the calls: active = growth percent below 10; inactive = the rest.
Log the outcome using a class from y (active), n (inactive)

{"Molecule": "CCOC(=O)c1cc(-c2ccc([N+](=O)[O-])cc2)n(-c2ccc(C(=O)O)c(O)c2)c1C", "Label class": "n"}
{"Molecule": "COc1cccc(CNc2ncnc3c2ncn3C2OC(CO)C(O)C2O)c1O (stereo unspecified)", "Label class": "y"}
{"Molecule": "COc1ccc(-c2nnc3n(C)c(=O)c4ccccc4n23)cc1N", "Label class": "n"}
{"Molecule": "COc1cc(-c2cc(-c3ccc(N(C)C)cc3)nc(N3CCC(O)CC3)c2C#N)cc(OC)c1OC", "Label class": "y"}
{"Molecule": "COC(=O)c1n[nH]c2ccc3nc(-c4cn[nH]c4C(F)(F)F)c4c(c3c12)CCCC4", "Label class": "n"}

Request: Given C=C1CC[C@@H]2[C@](C)(COC(C)=O)[C@H](OC(C)=O)CC[C@@]2(C)[C@@H]1CC(Sc1ccccc1)C1=CCOC1=O (stereo partly specified) , state the outcome it received in this test.
Response: n

Request: # fetch the recorded call for CN(C)c1ccc(/C=C/C(=O)c2ccc(-n3cc(CN4CCN(c5cc6c(cc5F)c(=O)c(C(=O)O)cn6C5CC5)CC4)nn3)cc2)cc1 here
Response: n

====

System: UO-31 renal
Protocol text: NCI-60 one-dose screen, 48 h
Experimental parameters: 10 µM unless noted
The panel holds about 83,000 compounds, 20% with a hit somewhere; the sample as a whole holds those more often. Activity calls are given as the source filed them. How the source made its calls: active means growth percent below 10; inactive means the rest.
Please reply with one of these outcomes: class 1 = active, class 0 = inactive

Reference set, count: 5
{"Compound": "CC(C)c1ccc(NC(=O)Nc2ccc(NC(=O)CCCC(=O)NOCc3ccccc3)cc2)cc1", "Label class": "class 0"}
{"Compound": "C=CCn1c(SCC(=O)Nc2ccc(C(=O)/C=C/c3ccc(Cl)cc3)cc2)nnc1-c1cc(-c2ccc(S(N)(=O)=O)cc2)nc2ccccc12", "Label class": "class 0"}
{"Compound": "CC1=C(CCC(C)N(C)Cc2ccc(OCCCN3CCCC3)cc2)C(C)(C)CCC1 (configuration not stated)", "Label class": "class 0"}
{"Compound": "O=C(c1cc2ccccc2o1)c1nn(-c2ccccc2)/c(=N/N=Cc2cn(-c3ccccc3)nc2-c2cc3ccccc3oc2=O)s1", "Label class": "class 0"}
{"Compound": "Nc1ncnc2c1N=C(c1ccc3c(c1)OCO3)CC(c1ccc([N+](=O)[O-])cc1)N2 (configuration not stated)", "Label class": "class 0"}

Request: Please indicate how the test categorized CC(=O)OC[C@]12CCC(C)(C)C[C@H]1[C@@]1(O)[C@H](O)C[C@@H]3[C@@]4(C)CCCNC(C)(C)[C@@H]4CC[C@@]3(C)[C@]1(C)CC2 .
Response: class 0

Request: Look up the recorded call for Nc1ncnc2c1N=C(c1ccc(Cl)cc1)CC(c1ccc3c(c1)OCO3)N2 (configuration not stated) in this test.
Response: class 0

Request: Test call, this compound: N#Cc1cccc(F)c1
Response: class 0

Request: What classification did CCN1C(=O)N(CC)C2C1NN=c1s/c(=C\c3cccc([N+](=O)[O-])c3)c(=O)n12 (configuration not stated) end up with in this test?
Response: class 0

Request: State the result this test recorded for CC1=C(Nc2ccc(N3CCN(C)CC3)cc2)C(=O)c2cncnc2C1=O .
Response: class 0

Request: What call does the record list for CCN(C(=O)N1CCN(c2cc3c(cc2F)c(=O)c(C(=O)O)cn3C2CC2)CC1)c1nc(-c2ccc(Cl)cc2)cs1 ?
Response: class 1

Request: Recorded test outcome, item CCN(c1ccc(Cl)cc1)c1nc(-c2ccc([N+](=O)[O-])cc2)cs1
Response: class 0

Request: For COc1ccc(C(=S)N2CCN(c3ccccc3Cl)CC2)cc1OC , what call appears in the results of this test?
Response: class 0

Request: Hi team, can someone confirm the assay call for O=C(Cn1cc(CN2CCCCCC2)nn1)Nc1ccc2c(ccn2Cc2ccccc2)c1 ?
Response: class 0
